# MEASURED TARGET: monoclonal antibody 12G6H5 (“Frida”)
# PROCEDURE SUMMARY: inhibition ELISA FIG. 18c, low peptide, 2.5 ng Frida, coat p4073

| BINDER | ELISA signal with competitor |
| --- | --- |
| CAAFPAHLLADAAQALA [p4434 C-…] | 1.74 |
| CFGFPEHLLVDFLQSLS [p4073 C-…, original CETP epitope] | 0.554 |
| CAAAPAHLLVDAAQAAA [p4437 C-…] | 1.84 |
| CFGFPSHIIIDWLQSLS [p4432 C-…] | 0.635 |
